assayed_target: UniProt:P10275
Sequence (P10275 whole entry): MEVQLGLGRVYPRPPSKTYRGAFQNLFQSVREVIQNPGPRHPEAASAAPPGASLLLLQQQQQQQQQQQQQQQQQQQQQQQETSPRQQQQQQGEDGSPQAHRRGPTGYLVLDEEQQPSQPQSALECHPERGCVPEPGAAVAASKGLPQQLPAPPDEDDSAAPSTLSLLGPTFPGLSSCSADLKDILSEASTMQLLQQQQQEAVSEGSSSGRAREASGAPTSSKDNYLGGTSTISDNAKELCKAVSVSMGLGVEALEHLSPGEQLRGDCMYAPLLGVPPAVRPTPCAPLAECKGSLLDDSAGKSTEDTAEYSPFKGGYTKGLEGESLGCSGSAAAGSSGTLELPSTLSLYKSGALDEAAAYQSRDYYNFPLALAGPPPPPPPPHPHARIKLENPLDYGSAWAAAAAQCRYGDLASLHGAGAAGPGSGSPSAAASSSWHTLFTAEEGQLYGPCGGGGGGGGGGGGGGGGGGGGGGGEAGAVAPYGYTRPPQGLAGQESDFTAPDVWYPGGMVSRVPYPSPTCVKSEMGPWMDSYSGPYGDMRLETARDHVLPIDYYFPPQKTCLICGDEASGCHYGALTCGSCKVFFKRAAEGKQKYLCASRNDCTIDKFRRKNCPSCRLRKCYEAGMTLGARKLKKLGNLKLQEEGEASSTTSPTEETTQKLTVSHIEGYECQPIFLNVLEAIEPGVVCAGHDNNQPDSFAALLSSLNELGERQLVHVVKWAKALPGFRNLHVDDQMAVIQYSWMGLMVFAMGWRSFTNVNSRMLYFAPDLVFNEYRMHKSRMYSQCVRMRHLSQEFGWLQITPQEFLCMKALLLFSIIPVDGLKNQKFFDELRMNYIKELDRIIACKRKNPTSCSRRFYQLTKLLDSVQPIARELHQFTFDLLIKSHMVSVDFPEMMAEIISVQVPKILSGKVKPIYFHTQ
quantity: Kd (µM)
Give bare numbers, in µM.

> print(dat)
                           molecular.string  value
1  N#Cc1ccc(-n2ccc(CC(=O)Nc3ccc(F)nc3)n2)cc1C(F)(F)F   8.99

Next, consider the following compound.
Reported Kd of N#Cc1ccc(-n2ccc(CC(=O)Nc3ccc(F)nc3)n2)cc1Cl : 20.5

###

Record form. Attribute: IC50. Fill in for each entry.
measurement_notes: Antagonist activity at mineralocorticoid receptor (unknown origin) transfected in PC-3 cells assessed as inhibition of […]-stimulated transcriptional activity after 3 days by dual luciferase reporter assay
Assay type: cell-based
measurement_context: Homo sapiens, PC-3, 72 h
One number for each entry, in µM.

The examples below pair each entry with its known result.
> print(dat)
                                   compound  quantity  value
1  N#Cc1ccc(-n2ccc(CC(=O)Nc3ccc(F)nc3)n2)cc1C(F)(F)F      IC50   16.3
2  N#Cc1ccc(-n2ccc(CC(=O)Nc3ccc(F)cc3)n2)cc1C(F)(F)F      IC50   4.43
3  N#Cc1ccc(-n2ccc(CC(=O)Nc3ccc(F)nc3)n2)cc1Cl      IC50   5.54

Next, consider the following compound.
Reported IC50 of CNC(=O)c1ccc(N2C(=S)N(c3ccc(C#N)c(C(F)(F)F)c3)C(=O)C2(C)C)cc1F [ENZALUTAMIDE] : 0.13
